- TESTED_ON: T1, mouse MMP-2 (Mus musculus, UniProt P33434)
- T1 construct: purchased R&D Systems 924-MP-010
- METHOD_NOTES: Enzyme inhibition assay (single point inhibition, IC50/Ki,app), substrate M-2350
- Assay type: biochemical
- TEST_PARAMETERS: small-scale sFab; Table 10
VALUE_TYPE: Ki (nM)

MOLECULE	NUMBER
M0273-B10: affinity matured variant of M237-D02, sFab (antibody, V domains shown) VH: EVQLLESGGGLVQPGGSLRLSCAASGFTFSKYAMIWVRQAPGKGLEWVSWIPPSGGYTSYADSVKGRFTISRDNSKNTLYLQMNSLRAEDTAVYYCAKDRAYGDYVGWNGFDYWGQGTLVTVSS VL: QDIQMTQSPATLSLSPGERATLSCRASQSISSFLAWYQQKPGQAPRLLIYDASYRATGIPARFSGSGSGTDFTLTISSLEPEDYAVYYCQQRGNWPITFGQGTRLEIK	59
M0276-F11: affinity matured variant of M237-D02, sFab (antibody, V domains shown) VH: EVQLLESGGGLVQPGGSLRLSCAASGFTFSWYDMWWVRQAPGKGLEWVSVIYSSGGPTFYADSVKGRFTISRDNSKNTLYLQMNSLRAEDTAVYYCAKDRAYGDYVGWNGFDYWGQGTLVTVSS VL: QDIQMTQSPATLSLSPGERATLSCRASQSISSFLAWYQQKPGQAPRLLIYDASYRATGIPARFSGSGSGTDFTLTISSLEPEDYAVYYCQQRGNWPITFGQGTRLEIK	3.7
